target: Platelet-derived growth factor receptor (Mus musculus, UniProt P05622+P26618); experiment: Inhibition of PDGFR autophosphorylation in mouse Swiss 3T3 fibroblast by immunoblotting
IC50: recorded values
# unit: µM | format: bare number

Worked cases, answers included:
compound-string	units-text	IC50
Cc1ccc(NC(=O)c2ccccc2C)cc1Nc1nc(-c2cccnc2)c[nH]1	µM	0.6
CCc1ccc(NC(=O)c2ccc(C)cc2)cc1Nc1nc(-c2cccnc2)c[nH]1	µM	6.5
Cc1cccc(C(=O)Nc2cccc(Nc3nc(-c4cccnc4)c[nH]3)c2)c1	µM	0.3

Switching to the query record.
Task: What does the data say about its IC50? Entry: Cc1ccc(NC(=O)c2ccc(Cl)cc2)cc1Nc1nc(-c2cccnc2)c[nH]1
Result: 0.4

---

target: Receptor-type tyrosine-protein kinase FLT3 (Homo sapiens) (UniProt P36888); test: Inhibition of FLT3 autophosphorylation in human EOL1 cells up to 10 ug/ml by immunoblotting; format: cell-based
Sequence (P36888 whole entry): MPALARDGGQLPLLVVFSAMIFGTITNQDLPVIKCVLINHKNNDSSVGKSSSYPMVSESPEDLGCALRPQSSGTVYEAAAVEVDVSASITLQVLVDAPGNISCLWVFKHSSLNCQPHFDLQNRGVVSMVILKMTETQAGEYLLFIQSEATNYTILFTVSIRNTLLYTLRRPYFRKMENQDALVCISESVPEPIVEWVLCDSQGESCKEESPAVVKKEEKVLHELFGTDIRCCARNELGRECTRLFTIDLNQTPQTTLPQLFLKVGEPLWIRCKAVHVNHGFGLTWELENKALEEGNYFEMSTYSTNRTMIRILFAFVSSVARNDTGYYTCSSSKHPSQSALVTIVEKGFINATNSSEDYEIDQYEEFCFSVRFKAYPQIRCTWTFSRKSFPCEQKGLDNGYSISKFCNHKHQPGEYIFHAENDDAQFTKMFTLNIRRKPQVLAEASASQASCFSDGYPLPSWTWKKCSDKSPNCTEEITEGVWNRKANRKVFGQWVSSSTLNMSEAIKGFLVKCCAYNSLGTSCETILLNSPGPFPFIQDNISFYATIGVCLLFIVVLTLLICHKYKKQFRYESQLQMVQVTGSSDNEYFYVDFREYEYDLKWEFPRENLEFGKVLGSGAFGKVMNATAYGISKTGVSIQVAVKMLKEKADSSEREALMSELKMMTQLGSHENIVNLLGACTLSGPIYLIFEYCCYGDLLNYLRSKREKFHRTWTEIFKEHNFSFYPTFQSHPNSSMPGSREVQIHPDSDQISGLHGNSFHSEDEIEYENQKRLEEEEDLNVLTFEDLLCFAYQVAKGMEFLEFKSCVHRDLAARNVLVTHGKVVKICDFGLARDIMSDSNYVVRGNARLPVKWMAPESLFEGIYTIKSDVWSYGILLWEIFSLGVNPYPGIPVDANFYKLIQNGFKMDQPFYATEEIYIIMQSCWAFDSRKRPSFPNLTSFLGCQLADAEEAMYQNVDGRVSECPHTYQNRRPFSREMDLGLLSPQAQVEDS
Activity calls are given as the source filed them. The rule behind the calls is not given here.
reported-property: Activity

compound-string	value-observed
Cc1ccc(N)cc1Nc1nc(-c2cccnc2)c[nH]1	inactive
Nc1cccc(Nc2nc(-c3cccnc3)c[nH]2)c1	inactive
Cc1ccc(NC(=O)c2ccc(N)cc2)cc1Nc1nc(-c2cccnc2)c[nH]1	inactive
COc1cc(C(=O)Nc2ccc(C)c(Nc3nc(-c4cccnc4)c[nH]3)c2)cc(OC)c1OC	inactive

Task: Lab note: need Activity with Receptor-type tyrosine-protein kinase FLT3 (Homo sapiens) (UniProt P36888) for entry COc1ccc(C(=O)Nc2ccc(C)c(Nc3nc(-c4cccnc4)c[nH]3)c2)cc1 , please look it up.
Result: inactive

---

biological target: Platelet-derived growth factor receptor (Mus musculus, UniProt P05622+P26618); experiment: Inhibition of PDGFR autophosphorylation in mouse Swiss 3T3 fibroblast by immunoblotting
pIC50: −log10 of the molar value.
Quick rule: pIC50 of at least 6 means T, below that means F.

compound-string	assigned-category
Cc1ccc(NC(=O)c2ccc(CN3CCN(C)CC3)cc2)cc1Nc1nc(-c2ccccc2)c[nH]1	F
CN1CCN(Cc2ccc(C(=O)Nc3cccc(Nc4nc(-c5cccnc5)c[nH]4)c3)cc2)CC1	F
Cc1ccc(C(=O)Nc2ccc(C)c(Nc3nc(-c4cccnc4)c[nH]3)c2)cc1	T
Cc1ccc(NC(=O)c2ccccc2)cc1Nc1nc(-c2ccccc2)c[nH]1	F
Cc1ccccc1C(=O)Nc1cccc(Nc2nc(-c3cccnc3)c[nH]2)c1	T

Task: Is reported pIC50 greater than or equal to 6 here: Cc1ccc(NC(=O)c2ccncc2)cc1Nc1nc(-c2cccnc2)c[nH]1
Result: F

---

biological target: Platelet-derived growth factor receptor (Mus musculus, UniProt P05622+P26618); experiment: Inhibition of PDGFR autophosphorylation in mouse Swiss 3T3 fibroblast by immunoblotting
reported-property: IC50

Examples with answers:
compound-string	measurement-target	value-observed
Cc1ccc(NC(=O)c2ccc(N)cc2)cc1Nc1nc(-c2cccnc2)c[nH]1	Platelet-derived growth factor receptor (Mus musculus, UniProt P05622+P26618)	> 30 µM
Cc1ccc(NC(=O)c2ccccc2)cc1Nc1nc(-c2ccncc2)c[nH]1	Platelet-derived growth factor receptor (Mus musculus, UniProt P05622+P26618)	> 10 µM
Cc1ccc(NC(=O)c2ccc(CN3CCN(C)CC3)cc2)cc1Nc1nc(-c2ccncc2)c[nH]1	Platelet-derived growth factor receptor (Mus musculus, UniProt P05622+P26618)	> 10 µM
Cc1ccc(NC(=O)c2ccc(CN3CCN(C)CC3)cc2)cc1Nc1nc(-c2cccnc2)c[nH]1	Platelet-derived growth factor receptor (Mus musculus, UniProt P05622+P26618)	> 10 µM

For the next question, use this compound.
Task: For the compound shown here, Cc1ccc(NC(=O)c2ccc([N+](=O)[O-])cc2)cc1Nc1nc(-c2cccnc2)c[nH]1 , give the reported IC50.
Result: > 30 µM

---

target: Platelet-derived growth factor receptor (Mus musculus, UniProt P05622+P26618); experiment: Inhibition of PDGFR autophosphorylation in mouse Swiss 3T3 fibroblast by immunoblotting
Assign labels as follows, please: MET for IC50 below 0.3 µM; NOT MET for IC50 equal to or exceeding 0.3 µM.

Consider the following illustrative entries.
compound-string	assigned-category
CCc1ccc(NC(=O)c2ccccc2)cc1Nc1nc(-c2cccnc2)c[nH]1	NOT MET
CCc1ccc(NC(=O)c2ccccc2C)cc1Nc1nc(-c2cccnc2)c[nH]1	NOT MET
COc1cc(C(=O)Nc2ccc(C)c(Nc3nc(-c4cccnc4)c[nH]3)c2)cc(OC)c1OC	NOT MET
COc1ccc(C(=O)Nc2ccc(C)c(Nc3nc(-c4cccnc4)c[nH]3)c2)cc1	NOT MET
Cc1cccc(C(=O)Nc2ccc(C)c(Nc3nc(-c4cccnc4)c[nH]3)c2)c1	NOT MET
Cc1ccc(NC(=O)c2ccccc2)cc1Nc1nccc(-c2cccnc2)n1	MET

Task: Field: below-cutoff. Rule: recorded IC50 strictly less than 0.3 µM. Subject: CC(=O)Nc1ccc(C)c(Nc2nc(-c3cccnc3)c[nH]2)c1
Result: NOT MET

Task: Similarly, CC(=O)Nc1ccc(C)c(Nc2nc(-c3ccccc3)c[nH]2)c1 ?
Result: NOT MET

Task: Moving on to the next compound: CCCCCCCCCCc1ccc(C(=O)Nc2ccc(C)c(Nc3nc(-c4cccnc4)c[nH]3)c2)cc1
Result: NOT MET

Task: Request: CC(=O)Nc1ccc(C)c(Nc2nccc(-c3cccnc3)n2)c1
Result: NOT MET

Task: Now consider Cc1ccc(C(=O)Nc2cccc(Nc3nc(-c4cccnc4)c[nH]3)c2)cc1 .
Result: MET

---

molecular target: Platelet-derived growth factor receptor (Mus musculus, UniProt P05622+P26618); experiment: Inhibition of PDGFR autophosphorylation in mouse Swiss 3T3 fibroblast by immunoblotting
IC50 for assorted compounds
# output: bare number, implied unit µM

compound	IC50, µM
Cc1ccc(NC(=O)c2ccc(CN3CCN(C)CC3)cc2)cc1Nc1nccc(-c2cccnc2)n1 [IMATINIB]	0.3

Task: What is its IC50 for Platelet-derived growth factor receptor (Mus musculus, UniProt P05622+P26618)? Entry: Cc1ccc(NC(=O)c2ccccc2)cc1Nc1nc(-c2cccnc2)c[nH]1
Result: 0.3

Task: What do we get for CCc1ccc(NC(=O)c2cccc(C)c2)cc1Nc1nc(-c2cccnc2)c[nH]1 ?
Result: 0.3
